# system-under-test: C-X-C chemokine receptor type 2 (Homo sapiens, UniProt P25025); further: in other assays of this panel Not Active means under 50% inhibition at 10 µM
# Sequence (P25025 whole entry): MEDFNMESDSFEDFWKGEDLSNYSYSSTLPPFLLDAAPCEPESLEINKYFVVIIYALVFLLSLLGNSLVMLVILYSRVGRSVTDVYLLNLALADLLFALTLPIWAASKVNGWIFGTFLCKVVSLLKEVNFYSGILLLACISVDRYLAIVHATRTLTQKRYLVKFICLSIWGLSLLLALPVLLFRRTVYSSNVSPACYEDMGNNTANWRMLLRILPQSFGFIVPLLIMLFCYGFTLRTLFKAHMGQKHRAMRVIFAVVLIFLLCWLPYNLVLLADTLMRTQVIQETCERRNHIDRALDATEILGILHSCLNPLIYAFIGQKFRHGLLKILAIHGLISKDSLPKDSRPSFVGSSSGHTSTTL
# Format: cell membranes, Membrane
# conditions-used: cho-k1
reported-property: IC50

INSERT INTO measurements (molecule, reported_property, experimental_value) VALUES
  ('CC(CCc1ccc(O)cc1)NCCc1ccc(O)c(O)c1 (stereo not given)', 'IC50', 'Not Active'),
  ('O=C(O)C(Cl)(Cl)Cl', 'IC50', 'Not Active'),
  ('COc1ccc2cc(CCC(C)=O)ccc2c1', 'IC50', 'Not Active'),
  ('CNS(=O)(=O)Cc1ccc2[nH]cc(CCN(C)C)c2c1', 'IC50', 'Not Active'),
  ('Clc1cc2c(cc1Cl)Oc1cc(Cl)c(Cl)cc1O2', 'IC50', 'Not Active');

Report IC50, nothing else, for this molecule: O=C(O)Cc1ccc(-c2ccccc2)cc1
Not Active

Report IC50, nothing else, for this molecule: CN(Cc1cnc2nc(N)nc(N)c2n1)c1ccc(C(=O)N[C@@H](CCC(=O)O)C(=O)O)cc1 [METHOTREXATE]
Not Active

Report IC50, nothing else, for this molecule: CCC[C@@H]1C[C@@H](C(=O)N[C@@H]([C@H]2O[C@H](SC)[C@H](O)[C@@H](O)[C@H]2O)[C@H](C)Cl)N(C)C1
Not Active

Report IC50, nothing else, for this molecule: Cc1cn[nH]c1 [FOMEPIZOLE]
Not Active

Report IC50, nothing else, for this molecule: Nc1ccc(S(=O)(=O)Nc2nccs2)cc1
Not Active

Report IC50, nothing else, for this molecule: C[C@]12CCC(=O)C=C1CC[C@@H]1[C@@H]2[C@@H](O)C[C@@]2(C)[C@H]1CC[C@]2(O)C(=O)CO [HYDROCORTISONE]
Not Active

Report IC50, nothing else, for this molecule: CC(=O)OCC(CCn1cnc2cnc(N)nc21)COC(C)=O
Not Active

Report IC50, nothing else, for this molecule: CC(=O)O[C@H]1C[C@@H]2CC[C@@H]3[C@H](CC[C@@]4(C)[C@H]3C[C@H]([N+]3(C)CCCCC3)[C@@H]4OC(C)=O)[C@@]2(C)C[C@@H]1N1CCCCC1.[Br-] [VECURONIUM BROMIDE]
Not Active

Report IC50, nothing else, for this molecule: COC(=O)c1ccccc1O [METHYL SALICYLATE]
Not Active

---

# system-under-test: Nitric oxide synthase 1 (Rattus norvegicus); further: in other assays of this panel Not Active means under 50% inhibition at 10 µM
# Sequence (P29476 whole entry): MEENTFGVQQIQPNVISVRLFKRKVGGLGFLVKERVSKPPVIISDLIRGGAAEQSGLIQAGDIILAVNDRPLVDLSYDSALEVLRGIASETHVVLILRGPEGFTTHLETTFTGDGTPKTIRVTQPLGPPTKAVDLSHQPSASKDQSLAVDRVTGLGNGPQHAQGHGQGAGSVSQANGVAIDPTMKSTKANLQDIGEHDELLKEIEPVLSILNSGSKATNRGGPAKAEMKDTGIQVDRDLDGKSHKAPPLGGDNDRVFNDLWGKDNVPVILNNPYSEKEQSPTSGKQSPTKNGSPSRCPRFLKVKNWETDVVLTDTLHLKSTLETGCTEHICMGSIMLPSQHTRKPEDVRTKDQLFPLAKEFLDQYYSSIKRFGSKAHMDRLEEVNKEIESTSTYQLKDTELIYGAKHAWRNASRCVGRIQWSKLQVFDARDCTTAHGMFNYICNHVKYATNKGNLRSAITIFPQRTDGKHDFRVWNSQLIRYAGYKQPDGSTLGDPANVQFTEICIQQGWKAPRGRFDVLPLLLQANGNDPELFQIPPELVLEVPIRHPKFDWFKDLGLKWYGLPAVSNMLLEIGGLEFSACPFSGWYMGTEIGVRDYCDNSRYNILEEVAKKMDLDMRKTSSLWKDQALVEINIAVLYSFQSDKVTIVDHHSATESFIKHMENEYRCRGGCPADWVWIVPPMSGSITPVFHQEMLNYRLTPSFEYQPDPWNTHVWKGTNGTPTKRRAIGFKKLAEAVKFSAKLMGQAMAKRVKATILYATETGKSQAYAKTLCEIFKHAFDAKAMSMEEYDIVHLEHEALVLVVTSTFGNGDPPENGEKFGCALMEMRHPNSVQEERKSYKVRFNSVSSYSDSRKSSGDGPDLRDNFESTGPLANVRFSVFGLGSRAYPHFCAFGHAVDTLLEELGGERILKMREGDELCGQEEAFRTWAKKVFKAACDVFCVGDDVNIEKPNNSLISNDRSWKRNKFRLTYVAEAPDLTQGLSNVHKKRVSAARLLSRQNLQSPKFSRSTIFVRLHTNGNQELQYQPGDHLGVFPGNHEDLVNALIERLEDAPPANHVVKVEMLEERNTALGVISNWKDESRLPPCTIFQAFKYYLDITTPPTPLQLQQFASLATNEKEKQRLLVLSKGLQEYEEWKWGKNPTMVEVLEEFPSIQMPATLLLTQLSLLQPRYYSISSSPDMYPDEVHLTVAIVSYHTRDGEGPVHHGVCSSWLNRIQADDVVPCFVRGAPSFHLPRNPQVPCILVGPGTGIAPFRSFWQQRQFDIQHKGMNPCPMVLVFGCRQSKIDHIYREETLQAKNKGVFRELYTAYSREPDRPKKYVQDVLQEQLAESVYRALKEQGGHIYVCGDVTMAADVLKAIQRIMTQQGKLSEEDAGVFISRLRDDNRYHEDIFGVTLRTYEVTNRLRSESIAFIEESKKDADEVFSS
# Assay type: tissue-based, Cerebellum
reported-property: IC50

INSERT INTO assay_data (compound, reported_property, experimental_value) VALUES
  ('COc1cc(CNC(=O)CCCC/C=C/C(C)C)ccc1O [CAPSAICIN]', 'IC50', 'Not Active'),
  ('C[C@]12CCC(=O)C=C1CC[C@@H]1[C@@H]2[C@@H](O)C[C@@]2(C)[C@H]1CC[C@]2(O)C(=O)CO [HYDROCORTISONE]', 'IC50', 'Not Active'),
  ('CO[C@H]1C[C@@H]2CC[C@@H](C)[C@@](O)(O2)C(=O)C(=O)N2CCCC[C@H]2C(=O)O[C@H]([C@H](C)C[C@@H]2CC[C@@H](O)[C@H](OC)C2)CC(=O)[C@H](C)/C=C(\C)[C@@H](O)[C@@H](OC)C(=O)[C@H](C)C[C@H](C)/C=C/C=C/C=C/1C [SIROLIMUS]', 'IC50', 'Not Active'),
  ('COc1ccc(CN2CCNCC2)c(OC)c1OC [TRIMETAZIDINE]', 'IC50', 'Not Active');
